Experiment: protein stability index of a GFP-peptide fusion (yeast GPS) (PSI 1-4); higher = more stable; sorted into four equal gates, so the index is relative within each strain
Conditions: san1∆
Parameter threshold = 3. Response is 1 (yes) when protein stability index meets or exceeds it, else 0 (no).

// below: answered sequences
sequence_input	answer_label
GAAFKVISNLVPKLESS [YJL039C/NUP192]	0 (no)
IYAGYDDRYGYQLYTSN [PRE9]	0 (no)
GKHLSYQRSKRVNNPNV [RPL33A]	0 (no)

**Q:** Does the sequence HEVQYQESSSTLSTHST [SIN4] have recorded protein stability index that is 3 or more?
**A:** 0 (no)

**Q:** Say whether LWALLNFLLPDIFGDSE [ISW2] shows protein stability index of 3 or more.
**A:** 0 (no)

**Q:** # check: protein stability index of QGFSKDTFELIKTFLVD [YDL116W/NUP84] is greater than or equal to 3
**A:** 0 (no)

**Q:** Kindly determine if protein stability index recorded for DIINAVNEIMYKCTAAM [MTW1] is above or exactly 3.
**A:** 0 (no)

**Q:** Dear colleague, could you confirm whether LPSDRCSKAMGDLASLV [RPP1] has protein stability index at or above 3?
**A:** 1 (yes)

**Q:** Dear colleague, could you confirm whether AASALDEKEKQLAVANE [SIR4] has protein stability index at or above 3?
**A:** 1 (yes)

**Q:** Check if protein stability index >= 3 (inclusive). Item: EETYEEKPQFKDGETTD [RPO26]
**A:** 1 (yes)

* * *

Assay: protein stability index of a GFP-peptide fusion (yeast GPS) (PSI 1-4); higher = more stable; sorted into four equal gates, so the index is relative within each strain
Conditions: san1∆
Items are presented alongside their recorded protein stability index.
Note: the reply should be a number with no unit written.

Consider the worked cases shown below.
sequence_input	protein stability index
FMLILALFVFYSPNTLG [COB]	2.46
CITKQDGFKIYDNEKTA [PUP2]	3.1
STVKGSVDLEKLAFGLT [TAF14]	3.61

**Q:** Give protein stability index for the following sequence: IYRGVLNDENSDDYDNE [SMC1]
**A:** 3.21

**Q:** Identify the reported protein stability index for the following entry. PCLSRSCTKCPQIVVPD [DIS3]
**A:** 2.63

**Q:** Report protein stability index, nothing else, for this sequence: DHILFTKTFIFIYKKVL [SRB8]
**A:** 1.15

**Q:** Given the sequence QIENLNEVCLEKENRFE [SMC4] , write its reported protein stability index.
**A:** 2.69

**Q:** Provide measured protein stability index value, entry: TAILQRQLQYETLGDIL [ECM29]
**A:** 2.73

**Q:** Specify reported protein stability index for the sequence shown: KMDMICRNINRKHRNAQ [DIS3]
**A:** 2.37

**Q:** Read the entry ERPAIEFETPTFLVSND [RPN14] and write its reported protein stability index.
**A:** 2.81

**Q:** Hello, please tell me recorded protein stability index for this one: HVVTREKGPQVCAKLFG [RPO21]
**A:** 2.95

* * *

Assay: protein stability index of a GFP-peptide fusion (yeast GPS) (PSI 1-4); higher = more stable; sorted into four equal gates, so the index is relative within each strain
Details: san1∆
Grouping key: protein stability index. Bins: group 1 (below 2), group 2 (2 to below 3), group 3 (3 or more)

sequence_input	answer_label
KLANFFSKKGNEPLSEI [YAR002W/NUP60]	group 3
PSSEVYSPIEKESPWKI [RRP6]	group 2
TKLIGVLILLHAERDLA [SRP68]	group 2
LSKINAIQLDYSTANEY [RPN3]	group 3
QEPFLNSSNYAELFNND [PRP8]	group 2

**Q:** Into which bin does this sequence go? INFKSREAIRPGHEMED [AAR2]
**A:** group 3

**Q:** Band for the recorded protein stability index of LIRNVGTNTYRLGEWSK [POP1] ?
**A:** group 1

**Q:** Which protein stability index category applies to RSDGMGNVLLNATVVDS [YLR335W/NUP2] here?
**A:** group 3

**Q:** For this sequence, which bin applies? ISKQKSKLDYIFKDKEK [SMC1]
**A:** group 2

**Q:** Which category fits this record: SGITGECLQAYIFFGPI [RET1]
**A:** group 2

**Q:** Which of the defined bands does the recorded protein stability index of FEFNIRHSGKVYPITLS [UBP6] sit within?
**A:** group 2

**Q:** Hi, small favor: classify NALDKLRNNLNSLIEEI [YCG1] by its protein stability index when you get a moment.
**A:** group 2

**Q:** Kindly state the category for this sequence: TCDEIQNFENDFSLRYI [REC8]
**A:** group 3

**Q:** Kindly state the category for this sequence: NKLMEKDFQVNKEIKPY [SIR4]
**A:** group 3

**Q:** Hi there! Could you help me figure out the category for EQQWITRAQYLAFAKLV [SRP68] please?
**A:** group 1

**Q:** Note: place this sequence into its band. Item: KAEMPPEHLRKIINTHS [PRP8]
**A:** group 1

**Q:** Hey, which category is PQSAPNQMGMGTNNGMS [YOR098C/NUP1] in, do you know?
**A:** group 3

**Q:** Which category does the recorded protein stability index put AMTIYWDDHTKKPLSMA [CDC53] in?
**A:** group 2

**Q:** Exam item: assign QWYTLQSQLNVTLSQLV [MED8] to the correct category.
**A:** group 1

**Q:** Assign a bin to LGYTHIAINFTVNHSEK [RPP1]
**A:** group 1

**Q:** Please indicate the class for AEFILKNRSTIFWGIRL [BRR2] based on its protein stability index.
**A:** group 1
